biological target: D(1A) dopamine receptor (Homo sapiens); assay: Antagonist of Human D 1 Dopamine Receptor: qHTS; conditions: HEK293 TREx D1 cells, calcium flux, dopamine EC80; at 10 µM; active compounds read low; further: on the % scale 0 is the no-effect control and ±100 the full control effect
Screen size: about 360,000 compounds; about 11,000 (3.1%) were called active. For the sample, actives were picked, then their nearest neighbours and some compounds at random.
assay endpoint: activity change, negative = inhibition (%)

In [3]: df
Out[3]:
                                    molecule  numeric_result
 0  N/C(Cc1ccc([N+](=O)[O-])cc1)=N\OC(=O)C1CCCCC1           -11.7
 1  Cc1ccc(NS(=O)(=O)c2ccc(C(=O)NCCCN3CCOCC3)cc2)cc1            26.5
 2        CCOc1ccc(NC(=O)c2ncoc2-c2ccco2)cc1           0.181
 3  CCc1nnc2c3ccccc3nc(N3CCN(c4ccc(C)cc4C)CC3)n12           -4.28
 4  O=C1CCc2cc(S(=O)(=O)Nc3ccc(C(F)(F)F)cc3)cc3c2N1CC3           -8.34
 5  COc1ccccc1CCNS(=O)(=O)c1cc2c3c(c1)C(C)C(=O)N3CCC2 (centres undefined)           -6.83
 6  O=C(NCCCNc1ccc([N+](=O)[O-])cc1Cl)c1ccccc1F           -30.1
 7  CCN(CC)CCN(C(=O)c1cc(Cl)sc1Cl)c1nc2cc3c(cc2s1)OCO3           -2.46
 8  COc1ccc(N(CC(=O)NCCc2ccc(Cl)cc2)S(=O)(=O)c2c(C)nn(C)c2C)cc1           -19.7
 9      OCc1cnc(SCc2ccc(F)cc2)n1Cc1ccc(F)cc1           -1.85
10      CNS(=O)(=O)c1cccc(C(=O)NCC2CCCCC2)c1            15.5
11  CC1(C(=O)NNC(=S)NCC2CCCO2)CC1(Cl)Cl (centres undefined)           -33.9
12  CCNC(=O)CC1C(=O)N(c2ccc(F)cc2)C(=O)N1Cc1ccc(C)cc1 (centres undefined)           -4.84
13  O=C(NCc1ccco1)c1cccn2c(=O)c3c4c(sc3nc12)CCCC4            -112
14  COc1cc2nc(NCC(C)c3ccccc3)n3nc(-c4ccccc4)nc3c2cc1OC (centres undefined)           -4.86
15  COc1ccc(N2C(=O)CSC23C(=O)N(Cc2cccc(F)c2)c2ccccc23)cc1Cl (centres undefined)          -0.577
16  O=C(NCCCN1CCOCC1)c1ccccc1NS(=O)(=O)c1ccc(Br)cc1          -0.557
17           COc1ccc(C)cc1S(=O)(=O)NC1CCCCC1            2.79
18  COc1ccc(NS(=O)(=O)c2ccc(NC(=O)c3ccc(N(C)S(C)(=O)=O)cc3)cc2)cc1            3.18
